Tested on: souris
assay: Acute toxicity, oral administration in mice
Type: in vivo
condition.set: oral, mice; maximal dose causing no mortality in 8 days
measured.quantity: DLo (mg/kg)
One number for each entry, in mg/kg.

Worked cases, DLo given:
Exam item: Dear colleague, please send me the reported DLo for CNCC(O)c1cccc2[nH]ccc12 (stereo not drawn) when you can.
Marked response: 600

Exam item: Report DLo, nothing else, for this compound: OC(CNCc1ccccc1)c1cccc2[nH]ccc12 (stereo not drawn)
Marked response: 100

Exam item: Name the recorded DLo of the compound listed here: CC(C)NCC(O)c1cccc2c1CCN2 (stereo not drawn)
Marked response: 200

Read the next record carefully.
Exam item: Please give the documented DLo of CCCNCC(O)c1cccc2[nH]ccc12 (stereo not drawn)
Marked response: 100

---

Test system: rats mâles de souche WISTAR
assay: Hypotensive activity in anaesthetised rats (carotid arterial pressure, intravenous administration)
Format: in vivo
condition.set: 1 mg/kg intravenous, 1 minute, relative to initial control pressure
Simple rule here: Variation % de la pression arterielle 1 minute après l'administration less than -20% is 1, otherwise -1.

Answered examples (3):
Exam item: API: query returns whether the compound falls strictly under -20% in Variation % de la pression arterielle 1 minute après l'administration. Query: OC(CNCc1ccccc1)c1cccc2[nH]ccc12 (centres unmarked)
Marked response: -1

Exam item: Does OC(CNCC(O)c1cccc2[nH]ccc12)COc1ccccc1 (centres unmarked) have Variation % de la pression arterielle 1 minute après l'administration strictly under -20%?
Marked response: 1

Exam item: Record CCCNCC(O)c1cccc2[nH]ccc12 (centres unmarked) : is its Variation % de la pression arterielle 1 minute après l'administration strictly below -20%?
Marked response: 1

As a next step, examine the compound that follows.
Exam item: Could you please tell me whether Variation % de la pression arterielle 1 minute après l'administration recorded for OC(CNCCc1ccccc1)c1cccc2[nH]ccc12 (centres unmarked) is less than -20%?
Marked response: -1

Values were extracted from patent EP0076713B1.
